Target: HIV-1 94UG103 Env (HIV-1 strain 94UG103)
Assay: cell-based or functional assay
Listed next: entries and their corresponding IC50 neutralization, 1 hour virus/Ab incubation.
Property Measured: IC50 neutralization, 1 hour virus/Ab incubation (µg/mL)

Binder: 1443_C16 (PG16) (TCN-116) (antibody, V domains shown) VH: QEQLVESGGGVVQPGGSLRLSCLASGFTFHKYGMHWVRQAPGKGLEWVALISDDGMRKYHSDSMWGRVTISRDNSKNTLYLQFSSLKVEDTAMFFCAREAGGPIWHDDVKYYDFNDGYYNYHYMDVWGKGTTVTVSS VL: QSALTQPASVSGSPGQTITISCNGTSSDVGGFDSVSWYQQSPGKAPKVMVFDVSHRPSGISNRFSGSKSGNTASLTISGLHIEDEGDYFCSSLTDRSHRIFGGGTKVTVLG
Qualifying Sign: =
Recorded Measurement: 0.0211
--
Binder: 1496_C09 (PG9) (TCN-109) (antibody, V domains shown) VH: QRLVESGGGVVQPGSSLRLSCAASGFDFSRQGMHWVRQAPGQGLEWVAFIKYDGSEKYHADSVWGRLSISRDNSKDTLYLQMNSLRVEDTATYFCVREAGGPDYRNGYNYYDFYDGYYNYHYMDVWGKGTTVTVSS VL: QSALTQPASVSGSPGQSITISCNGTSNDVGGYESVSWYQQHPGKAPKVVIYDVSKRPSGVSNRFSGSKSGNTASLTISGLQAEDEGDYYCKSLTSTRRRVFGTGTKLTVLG
Qualifying Sign: =
Recorded Measurement: 0.334
--
Binder: 1460_G14 (PGG14) (antibody, human IgG1, kappa, V domains shown) VH: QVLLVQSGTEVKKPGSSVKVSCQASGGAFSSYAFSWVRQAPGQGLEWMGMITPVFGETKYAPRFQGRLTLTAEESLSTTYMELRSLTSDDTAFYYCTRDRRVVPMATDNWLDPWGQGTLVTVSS VL: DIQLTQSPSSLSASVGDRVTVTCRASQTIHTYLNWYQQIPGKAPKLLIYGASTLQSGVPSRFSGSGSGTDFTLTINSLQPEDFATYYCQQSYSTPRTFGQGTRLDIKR
Qualifying Sign: >
Recorded Measurement: 50
--
Binder: 1456_P20 (PG20) (antibody, human IgG1, kappa, V domains shown) VH: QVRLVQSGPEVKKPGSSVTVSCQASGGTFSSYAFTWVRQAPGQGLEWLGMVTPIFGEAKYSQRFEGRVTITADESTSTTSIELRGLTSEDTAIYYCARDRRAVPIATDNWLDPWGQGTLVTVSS VL: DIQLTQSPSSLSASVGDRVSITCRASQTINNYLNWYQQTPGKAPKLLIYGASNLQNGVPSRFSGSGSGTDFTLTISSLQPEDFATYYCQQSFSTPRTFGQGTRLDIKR
Qualifying Sign: >
Recorded Measurement: 50

Data provenance is patent US20160264649A1.
